# target_or_test_system: Estrogen receptor (Homo sapiens)
# assay_remarks: qHTS assay to identify small molecule antagonists of the estrogen receptor alpha (ER-alpha) signaling pathway using the BG1 cell line in the presence of 0.1 nM 17-beta-estradiol (AID 1259244); also: nearly all actives have a fitted effect of over 50% in size
# condition_context: VM7Luc4E2 (BG1) ERE-luciferase, antagonist mode, 0.1 nM E2, 22 h; series mostly up to 92.4 µM
# Text: National Center for Advancing Translational Sciences [NCATS] NIH Chemical Genomics Center [NCGC] U.S. Environmental Protection Agency [EPA] National Institutes of Environmental Health Sciences [NIEHS] National Toxicology Program [NTP] U.S. Food and Drug Administration [FDA] Estrogen receptor (ER), a member of the nuclear hormone receptor plays an important role in development, metabolic homeostasis and reproduction. […]
Inconclusive results are not listed. Activity calls are given as the source filed them. Calls follow the shape of the dose curve; as a rule, active = well fitted inhibition curve with a large enough effect in the repeat runs; inconclusive = weak or mixed curves; inactive = no such curve, though single readings can be large or run the other way.
Field 'call' accepts YES = active, NO = inactive

Examples from the recorded data:
compound=C[N+](C)(C)Cc1ccccc1 target_or_test_system="Estrogen receptor (Homo sapiens)" assigned_class=NO
compound=CCNc1nc(Cl)nc(NCC)n1 target_or_test_system="Estrogen receptor (Homo sapiens)" assigned_class=NO
compound=Nc1ccc(-c2ccc(N)c(Cl)c2)cc1Cl target_or_test_system="Estrogen receptor (Homo sapiens)" assigned_class=YES
compound=C1CCC(NC2CCCCC2)CC1 target_or_test_system="Estrogen receptor (Homo sapiens)" assigned_class=NO
compound="O=P1(N(CCCl)CCCl)NCCCO1 (stereo not drawn)" target_or_test_system="Estrogen receptor (Homo sapiens)" assigned_class=NO
compound="COCC(=O)N(c1c(C)cccc1C)C(C)C(=O)OC (stereo not drawn)" target_or_test_system="Estrogen receptor (Homo sapiens)" assigned_class=NO

Dear all, I need the recorded test outcome for Cc1cc(-c2ccc(N)c(C)c2)ccc1N , thank you.
YES

Dear all, I need the recorded test outcome for CC(Cl)(Cl)C(=O)O , thank you.
NO
